Value source: patent US8247211B2

This section presents molecules with their documented MIC Streptococcus pneumoniae (GC 4565) values.
System: Streptococcus sp.
Assay: In vitro antibacterial evaluation: minimum inhibitory concentration (MIC), broth dilution method
Assay type: cell-based
Details: broth dilution, 18 hours at 35° C.
Give the figure together with its unit, number first.

INSERT INTO measurements (molecule, test_value) VALUES
  ('CC(=O)Nc1cc(CC2NC(=O)C(C(C)c3ccccc3)NC(=O)CNC(=O)C(CO)NC(=O)C(C(O)C3CNC(=N)N3C3OC(CO)C(O)C(O)C3O)NC(=O)C(C(O)C3CNC(=N)N3)NC2=O)ccc1O (stereo not shown)', '4 µg/mL'),
  ('CC(c1ccccc1)C1NC(=O)CNC(=O)C(CO)NC(=O)C(C(O)C2CNC(=N)N2C2OC(CO)C(O)C(O)C2O)NC(=O)C(C(O)C2CNC(=N)N2)NC(=O)C(Cc2ccc3oc(=O)[nH]c3c2)NC1=O (stereo not shown)', '8 µg/mL'),
  ('CC(c1ccccc1)C1NC(=O)CNC(=O)C(CO)NC(=O)C(CC2CNC(=N)N2C2OC(CO)C(O)C(O)C2O)NC(=O)C(CC2CNC(=N)N2)NC(=O)C(Cc2ccc3oc(-c4ccc5c(c4)Cc4ccccc4-5)nc3c2)NC1=O (stereo not shown)', '16 µg/mL');

Moving on to another molecule below.
Can you look up the measured MIC Streptococcus pneumoniae (GC 4565) of CC(c1ccccc1)C1NC(=O)CNC(=O)C(CO)NC(=O)C(C(O)C2CNC(=N)N2C2OC(CO)C(O)C(O)C2O)NC(=O)C(C(O)C2CNC(=N)N2)NC(=O)C(Cc2ccc3oc(-c4ccoc4)nc3c2)NC1=O (stereo not shown) for me?
64 µg/mL
